Molecular target: T1, human vascular endothelial growth factor receptor-2 Fc chimera (KDR-Fc) (human, UniProt P35968 20-764)
T1 construct: range 1-764; also called human VEGFR-2; not shown: human IgG1 Fc
T1 sequence (P35968 20-764 limits assumed, change not shown, form in doubt): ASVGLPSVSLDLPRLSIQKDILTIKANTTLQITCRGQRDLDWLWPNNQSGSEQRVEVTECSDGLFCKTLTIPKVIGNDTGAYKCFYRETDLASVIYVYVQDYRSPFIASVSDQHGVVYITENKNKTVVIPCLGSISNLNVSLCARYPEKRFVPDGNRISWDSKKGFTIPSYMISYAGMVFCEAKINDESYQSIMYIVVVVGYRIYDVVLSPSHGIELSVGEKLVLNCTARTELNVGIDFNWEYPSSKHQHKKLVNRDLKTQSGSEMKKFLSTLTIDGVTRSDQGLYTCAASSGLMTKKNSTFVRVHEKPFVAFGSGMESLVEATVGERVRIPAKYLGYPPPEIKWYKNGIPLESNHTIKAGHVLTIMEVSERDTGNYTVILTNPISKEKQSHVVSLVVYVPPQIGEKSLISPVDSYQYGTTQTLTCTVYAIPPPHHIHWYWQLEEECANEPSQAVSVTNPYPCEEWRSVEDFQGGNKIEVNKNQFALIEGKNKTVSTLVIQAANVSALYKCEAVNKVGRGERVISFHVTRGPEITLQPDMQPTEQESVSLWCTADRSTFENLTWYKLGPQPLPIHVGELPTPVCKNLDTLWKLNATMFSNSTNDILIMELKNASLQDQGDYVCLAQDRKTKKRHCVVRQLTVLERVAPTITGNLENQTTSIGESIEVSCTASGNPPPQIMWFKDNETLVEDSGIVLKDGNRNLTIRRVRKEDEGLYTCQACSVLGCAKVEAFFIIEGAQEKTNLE
Assay: radioactive equilibrium binding assay, 1 nM KDR-Fc, % of input bound
value type: Binding to 1 nM KDR, % (%)

Consider the reported Binding to 1 nM KDR, % for these binders:
EGE10 (designed binder, 10Fn3 clone, Del 1-8) EVVAATPTSLLISWRHPHFPTRYYRITYGETGGNSPVQEFTVPLQPPTATISGLKPGVDYTITGYAVTMGPNDRELLTPISINYRT | 37
B3 (designed binder, 10Fn3 clone, Del 1-8) EVVAATPTSLLISWRHPHFPTRYYRITYGETGGNSPVQEFTVPLQPPTATISGLKPGVDYTITGYAVTMERNGRELMTPISINYRT | 33
G3 (designed binder, 10Fn3 clone, Del 1-8) EVVAATPTSLLISWRHPHFPTRYYRITYGETGGNSPVQEFTVPLQPPTATISGLKPGVDYTITGYAVTMERSGRELMTPISINYRT | 28
B5 (designed binder, 10Fn3 clone, Del 1-8) EVVAATPTSLLISWRHPHFPTRYYRITYGETGGNSPVQEFTVPLQPPTATISGLKPGVDYTITGYAVTQERNGRELMTPISINYRT | 27

(I) E15 (designed binder, 10Fn3 clone, Del 1-8) EVVAATPTSLLISWRHPHFPTRYYRITYGETGGNSPVQEFTVPLQPPTATISGLKPGVDYTITGYAVTLEPNGRYLMVPISINYRT
(II) C6 (designed binder, 10Fn3 clone, Del 1-8) EVVAATPTSLLISWRHPHFPTRYYRITYGETGGNSPVQEFTVPLQPPTATISGLKPGVDYTITGYAVTLERNGRVLMTPISINYRT
(III) A7 (designed binder, 10Fn3 clone, Del 1-8) EVVAATPTSLLISWRHPHFPTRYYRITYGETGGNSPVQEFTVPLQPPTATISGLKPGVDYTITGYAVTDGPNNRELIVPISINYRT
Exercise: Sort (3 binders) by Binding to 1 nM KDR, %: min first. Sort and list the labels as requested.
Solution: III, II, I

(1) A12 (designed binder, 10Fn3 clone, Del 1-8) EVVAATPTSLLISWRHPHFPTRYYRITYGETGGNSPVQEFTVPLQPPTATISGLKPGVDYTITGYAVTVEWNGRVLMTPISINYRT
(2) F12 (designed binder, 10Fn3 clone, Del 1-8) EVVAATPTSLLISWRHPHFPTRYYRITYGETGGNSPVQEFTVPLQPPTATISGLKPGVDYTITGYAVTDGRNGHELMTPISINYRT
Exercise: # argmax over Binding to 1 nM KDR, % for candidates 1 and 2 Lab log: write the label of the selected item as the result.
Solution: 1
(1: 40%, 2: 17%)
